Hello, the source for this data is patent US9868766B2, in case you need it.

target: human Oxytocin (OTR) receptor (Homo sapiens, UniProt P30559); construct: expressed in transfected cells; test: Calcium flux assay (FLIPR), agonist mode, CHO cells expressing human OTR; type: cell-based; details: CHO; maximum response normalized to endogenous full agonist = 100%; read-out: hOT efficacy (%)
Sequence (P30559 whole entry): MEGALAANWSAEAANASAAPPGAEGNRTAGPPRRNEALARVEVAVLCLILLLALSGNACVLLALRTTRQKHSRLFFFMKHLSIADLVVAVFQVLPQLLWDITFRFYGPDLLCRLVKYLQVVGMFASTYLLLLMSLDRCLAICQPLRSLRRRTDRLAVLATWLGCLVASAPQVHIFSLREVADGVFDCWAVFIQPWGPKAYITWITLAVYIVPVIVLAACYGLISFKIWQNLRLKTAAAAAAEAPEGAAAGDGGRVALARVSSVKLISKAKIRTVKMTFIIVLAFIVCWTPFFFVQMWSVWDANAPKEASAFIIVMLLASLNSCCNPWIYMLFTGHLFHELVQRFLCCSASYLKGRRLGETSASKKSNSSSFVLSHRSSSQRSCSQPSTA
Positions of bridges follow the written chain, without caps; N, C: chain ends. Non-standard residues stand in square brackets, D forms with d. Residues, ends and D or L forms follow the SMILES beside them. Nle = CCCC[C@H](N)C(=O)O; Sar = CNCC(=O)O
Parameter Emax: see the listing below.
PROPERTY: Emax

[[record]]
compound = "CCCC[C@H](NC(=O)CN(C)C(=O)[C@@H]1CCC(=O)NCC(=O)N[C@@H](Cc2ccc(O)cc2)C(=O)N[C@@H]([C@@H](C)CC)C(=O)N[C@@H](CCC(N)=O)C(=O)N[C@@H](CC(N)=O)C(=O)N1)C(=O)NCC(N)=O [Example 40] (GYIQNE[Sar][Nle]G-NH2; lactam N-6)"
result = "124%"

[[record]]
compound = "CC[C@H](C)[C@@H]1NC(=O)[C@H](Cc2ccc(O)cc2)NC(=O)CNC(=O)CC[C@@H](C(=O)N2CCC[C@H]2C(=O)N[C@@H](CC(C)C)C(=O)NCC(N)=O)NC(=O)[C@H](CC(N)=O)NC(=O)[C@H](CCC(N)=O)NC1=O [Example 24] (GYIQNEPLG-NH2; lactam N-6)"
result = "152%"


###

Molecular target: human Oxytocin (OTR) receptor (Homo sapiens)
Construct: expressed in transfected cells
Assay: Calcium flux assay (FLIPR), agonist mode, CHO cells expressing human OTR
Type: cell-based
Details: maximum response normalized to endogenous full agonist = 100%
Experimental: Chines Hamster Ovary (CHO) cells were transfected with expression plasmids encoding either the human V1a, the human Oxytocin (OTR) or the humanV2 receptor, the later in combination with the chimeric Gqs5 G protein to redirect the signal to Calcium flux. […] On the afternoon before the assay, cells were plated at a density of 50,000 cells/well into black 96 well plates with clear bottoms to allow cell inspection and fluorescence measurements from the bottom of each well. […]
Positions of bridges follow the written chain, without caps; N, C: chain ends. Non-standard residues stand in square brackets, D forms with d. Residues, ends and D or L forms follow the SMILES beside them. Phe(4-NH2) = Nc1ccc(C[C@H](N)C(=O)O)cc1; aThr = C[C@H](O)[C@H](N)C(=O)O; αMeL = CC(C)C[C@](C)(N)C(=O)O; Chg = N[C@H](C(=O)O)C1CCCCC1; Sar = CNCC(=O)O
PROPERTY: hOT efficacy (%)

[[record]]
molecule = "CC[C@H](C)[C@@H]1NC(=O)[C@H](Cc2ccc(O)cc2)NC(=O)CNC(=O)CC[C@@H](C(=O)N(C)CC(=O)N[C@H](C(=O)NCC(N)=O)C2CCCCC2)NC(=O)[C@H](CC(N)=O)NC(=O)[C@H](CCC(N)=O)NC1=O [Example 41] (GYIQNE[Sar][Chg]G-NH2; lactam N-6)"
unit_name = "%"
recorded_number = 117

[[record]]
molecule = "CC[C@H](C)[C@@H]1NC(=O)[C@H](Cc2ccc(O)cc2)NC(=O)CNC(=O)CC[C@@H](C(=O)N(C)CC(=O)N[C@@](C)(CC(C)C)C(=O)NCC(N)=O)NC(=O)[C@H](CC(N)=O)NC(=O)[C@H](CCC(N)=O)NC1=O [Example 51] (GYIQNE[Sar][αMeL]G-NH2; lactam N-6)"
unit_name = "%"
recorded_number = 97

[[record]]
molecule = "CC[C@H](C)[C@@H]1NC(=O)[C@H](Cc2ccc(O)cc2)NC(=O)CNC(=O)CC[C@@H](C(=O)N(C)CC(=O)N[C@@H](Cc2c[nH]cn2)C(=O)NCC(N)=O)NC(=O)[C@H](CC(N)=O)NC(=O)[C@H](CCC(N)=O)NC1=O [Example 34] (GYIQNE[Sar]HG-NH2; lactam N-6)"
unit_name = "%"
recorded_number = 136

[[record]]
molecule = "CC[C@H](C)[C@@H]1NC(=O)[C@H](Cc2ccc(O)cc2)NC(=O)CNC(=O)CC[C@@H](C(=O)N2CCC[C@H]2C(=O)N[C@@H](CC(C)C)C(=O)N(C)CC(N)=O)NC(=O)[C@H](CC(N)=O)NC(=O)[C@H](CCC(N)=O)NC1=O [Example 5] (GYIQNEPL[Sar]-NH2; lactam N-6)"
unit_name = "%"
recorded_number = 108

[[record]]
molecule = "CC[C@H](C)[C@@H]1NC(=O)[C@H](Cc2ccc(O)cc2)NC(=O)CNC(=O)CC[C@@H](C(=O)N(C)CC(=O)N[C@H](C(=O)NCC(N)=O)[C@H](C)O)NC(=O)[C@H](CC(N)=O)NC(=O)[C@H](CCC(N)=O)NC1=O [Example 25] (GYIQNE[Sar][aThr]G-NH2; lactam N-6)"
unit_name = "%"
recorded_number = 125

[[record]]
molecule = "CC[C@H](C)[C@@H]1NC(=O)[C@H](Cc2ccc(O)cc2)NC(=O)CNC(=O)CC[C@@H](C(=O)N2CCC[C@H]2C(=O)N[C@@H](Cc2ccc(N)cc2)C(=O)NCC(N)=O)NC(=O)[C@H](CC(N)=O)NC(=O)[C@H](CCC(N)=O)NC1=O [Example 11] (GYIQNEP[Phe(4-NH2)]G-NH2; lactam N-6)"
unit_name = "%"
recorded_number = 94

[[record]]
molecule = "CC[C@H](C)[C@@H]1NC(=O)[C@H](Cc2ccc(O)cc2)NC(=O)CNC(=O)CC[C@@H](C(=O)N2CCC[C@H]2C(=O)N[C@@H](C)C(=O)NCC(N)=O)NC(=O)[C@H](CC(N)=O)NC(=O)[C@H](CCC(N)=O)NC1=O [Example 18] (GYIQNEPAG-NH2; lactam N-6)"
unit_name = "%"
recorded_number = 91

